Test target: T1, myristoylated bovine recoverin (bovine, UniProt P21457 1-202, myristoylated)
T1 construct: recoverin, bovine, neuronal Ca2+-sensor protein of photoreceptors
T1 sequence (looked up): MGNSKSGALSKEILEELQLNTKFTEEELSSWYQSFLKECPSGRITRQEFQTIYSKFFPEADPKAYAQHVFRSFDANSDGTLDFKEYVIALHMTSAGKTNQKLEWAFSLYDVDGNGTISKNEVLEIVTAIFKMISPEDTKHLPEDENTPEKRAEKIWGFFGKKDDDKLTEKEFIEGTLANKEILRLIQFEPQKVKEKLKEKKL
Test details: backscattering interferometry (BSI); free solution, label-free; recoverin dilution series with constant 4 μM GST-NRK; 20 mM HEPES/KOH pH 7.5, 100 mM NaCl, 1 mM MgCl2, 200 μM CaCl2; GST alone as reference; one site binding model
Run conditions: both partners purified
Property label: pKd
pKd here: minus log base 10 of the concentration, concentration in moles per litre.

Query: Which pKd value is on record for MDFGSLETVVANSAFIAARGSFDAS (domain or fragment, UniProt P28327 1-25, looked up, rhodopsin kinase GRK1, bovine, the N-terminal 25 amino acids; also called NRK; N-terminal GRK1 fragment) [GST fusion protein containing the N-terminal 25 amino acids of bovine GRK1] ?
Reply: 5.33

The measurements presented in this section are drawn from paper PMC5374524.
